# target_of_assay: Multidrug resistance-associated protein 1 (Homo sapiens)
# Sequence (P33527 whole entry): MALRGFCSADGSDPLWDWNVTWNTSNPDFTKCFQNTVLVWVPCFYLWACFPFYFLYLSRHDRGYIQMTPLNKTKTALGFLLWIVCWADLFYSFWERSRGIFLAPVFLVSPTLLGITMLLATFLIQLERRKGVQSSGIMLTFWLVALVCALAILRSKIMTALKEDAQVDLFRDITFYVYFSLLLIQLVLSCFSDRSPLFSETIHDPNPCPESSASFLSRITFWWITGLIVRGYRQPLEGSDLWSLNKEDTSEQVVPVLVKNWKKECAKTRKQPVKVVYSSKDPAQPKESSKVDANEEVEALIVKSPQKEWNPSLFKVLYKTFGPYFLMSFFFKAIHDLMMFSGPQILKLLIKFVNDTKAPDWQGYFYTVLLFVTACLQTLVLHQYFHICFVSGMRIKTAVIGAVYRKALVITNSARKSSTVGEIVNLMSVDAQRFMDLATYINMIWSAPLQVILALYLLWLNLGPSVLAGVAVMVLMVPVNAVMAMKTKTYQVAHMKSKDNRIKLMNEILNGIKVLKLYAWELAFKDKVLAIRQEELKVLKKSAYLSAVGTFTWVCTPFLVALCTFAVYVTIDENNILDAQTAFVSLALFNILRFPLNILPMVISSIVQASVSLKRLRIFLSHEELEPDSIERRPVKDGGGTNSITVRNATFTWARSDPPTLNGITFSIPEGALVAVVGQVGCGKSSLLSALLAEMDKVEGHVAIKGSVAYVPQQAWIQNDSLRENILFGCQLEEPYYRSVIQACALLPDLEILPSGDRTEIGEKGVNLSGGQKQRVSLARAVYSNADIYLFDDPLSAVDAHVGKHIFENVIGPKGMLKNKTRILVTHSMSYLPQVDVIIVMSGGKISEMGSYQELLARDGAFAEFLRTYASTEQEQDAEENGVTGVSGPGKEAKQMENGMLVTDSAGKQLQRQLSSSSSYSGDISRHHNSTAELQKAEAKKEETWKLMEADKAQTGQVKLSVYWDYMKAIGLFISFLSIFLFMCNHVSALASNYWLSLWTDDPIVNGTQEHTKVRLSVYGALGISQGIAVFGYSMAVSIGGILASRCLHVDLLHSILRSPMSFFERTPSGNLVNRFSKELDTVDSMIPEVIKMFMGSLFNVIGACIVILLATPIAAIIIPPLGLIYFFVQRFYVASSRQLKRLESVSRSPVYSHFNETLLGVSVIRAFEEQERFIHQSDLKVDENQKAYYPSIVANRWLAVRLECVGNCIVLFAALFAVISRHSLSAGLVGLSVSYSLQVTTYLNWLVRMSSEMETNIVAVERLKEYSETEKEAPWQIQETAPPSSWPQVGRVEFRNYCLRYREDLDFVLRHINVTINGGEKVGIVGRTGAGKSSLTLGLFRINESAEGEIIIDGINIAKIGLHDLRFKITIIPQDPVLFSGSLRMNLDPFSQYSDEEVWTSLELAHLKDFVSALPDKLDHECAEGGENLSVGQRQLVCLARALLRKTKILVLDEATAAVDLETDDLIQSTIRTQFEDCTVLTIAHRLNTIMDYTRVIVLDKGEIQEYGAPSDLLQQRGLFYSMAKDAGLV
# protocol: TP_TRANSPORTER: intracellular accumulation in MRP1-expressing GLC4/ADR cell
# Assay type: functional, cell-based
# test_parameters: glc-4/adr

| molecule | Activity |
| --- | --- |
| CN(C)c1ccc2c(-c3ccccc3C(=O)[O-])c3ccc(N(C)C)cc3[o+]c2c1 [TETRAMETHYLRHODAMINE] | substrate [+] |
| CC/N=c1\cc2oc3cc(NCC)c(C)cc3c(-c3ccccc3C(=O)OCC)c-2cc1C.Cl [RHODAMINE 6G HYDROCHLORIDE] | substrate [+] |
| COC(=O)c1ccccc1-c1c2ccc(=[N+](C)C)cc-2oc2cc(N(C)C)ccc12 [RHODAMINE II] | substrate [+] |
| CCOC(=O)c1ccccc1-c1c2ccc(=[N+](C)C)cc-2oc2cc(N(C)C)ccc12 [RHODAMINE I] | substrate [+] |

meta.source: ChEMBL document CHEMBL2074342
